Test system: HEK-293T
Test: Incucyte cell viability with HEK293T; note: unitless GR value; below 1 slowed growth and below 0 cell loss
Assay type: toxicity, cell-based
Conditions: human, 6 h, 10 µM, compound concentration 10 uM, replicate number 1, timepoint 6 hours
READOUT TYPE: Growth Rate
Just the number, please, no unit after it.

Some solved entries appear below for comparison.
# COMPOUND, SYSTEM UNDER TEST, Growth Rate
data = [
    ("NC(=O)c1cccc(-c2cc(Nc3ccc(OC(F)(F)F)cc3)ncn2)c1", "HEK-293T", -0.43),
    ("C=CCNc1ncnc2ccc(Br)cc12", "HEK-293T", 0.57),
]

Send back HEK-293T Growth Rate of Brc1c(N=C2NCCN2)ccc2nccnc12.O=C(O)C(O)C(O)C(=O)O only.
0.47

Give HEK-293T Growth Rate for the following compound: COc1cc(C(=O)N2CC[C@@H](O)[C@@H](N)C2)cc2nc(-c3cc4ccccc4n3CC3CC3)n(C)c12.Cl
0.71

Supply Growth Rate measured with HEK-293T for COc1cc2nc(N3CCN(C(=O)COc4c(OC)cccc4C(C)C)CC3)nc(N)c2cc1OC.Cl.Cl .
-0.28

Report measured Growth Rate on HEK-293T; entry: CC(C)OC(=O)N1CCC(Oc2ncnc3c2cnn3-c2ccc(S(C)(=O)=O)cc2F)CC1
0.81

Look up and report Growth Rate, with HEK-293T as system, for C[C@H](CCC(=O)O)[C@H]1CC[C@H]2[C@@H]3CC[C@@H]4C[C@H](O)CC[C@]4(C)[C@H]3CC[C@]12C
0.39

Find the measured Growth Rate of CCCCCC(O)/C=C/[C@H]1C(=O)CC(O)C1C/C=C\CCCC(=O)O (some centres undefined) with HEK-293T as test system.
0.68

Fill in Growth Rate for Cc1cc(C)cc([C@H]2c3cc(C)ccc3NC(=O)CN2C(=O)c2ccc(Br)s2)c1 tested with HEK-293T.
0.95

###

Recorded Growth Rate values for a group of molecules are listed next.
Tested on: Fibroblast
Experiment: Incucyte cell viability with human fibroblast; note: unitless GR value; below 1 slowed growth and below 0 cell loss
Assay type: toxicity, cell-based
Settings: 18 h, 10 µM, compound concentration 10 uM, replicate number 1, timepoint 18 hours
Just the number, please, no unit after it.

# MOLECULE, READOUT TYPE, RESULT NUMBER
records = [
    ("CCn1c(-c2nc3cc(C(=O)N4CCCC(N)C4)ccc3n2C)cc2ccccc21.Cl (stereo not drawn)", "Growth Rate", -0.08),
    ("COc1cc(/C=C/C(=O)NCCn2c(C)cc3ccccc32)cc(OC)c1OC", "Growth Rate", 0.66),
    ("CC(C)(C)c1ccc(-c2coc3ccc(-c4cn[nH]c4)nc23)cc1", "Growth Rate", -0.62),
    ("CC(C)(O)C(=O)N1CCN(c2ccc(C(F)(F)F)c(C3=C(c4c[nH]c5ccccc45)C(=O)NC3=O)c2)CC1", "Growth Rate", -0.31),
    ("N[C@@H]1c2cccnc2[C@H](OC(=O)N2CCC(n3c(=O)[nH]c4ncccc43)CC2)CC[C@H]1c1cccc(F)c1F [RIMEGEPANT]", "Growth Rate", 0.2),
    ("CN[C@@H](C)C(=O)N[C@H](C(=O)N1CCC[C@H]1C(=O)Nc1snnc1-c1ccccc1)C1CCCCC1 [GDC-0152]", "Growth Rate", -0.58),
    ("CCc1cc2c(cc1-c1cccc(S(=O)(=O)F)c1)C(C)(C)c1[nH]c3cc(C#N)ccc3c1C2=O", "Growth Rate", -0.21),
]

Here is another molecule to look at.
Fill: Growth Rate (Fibroblast) for this molecule Cn1cc(-c2ccc3occ(-c4cccc(-c5ccncc5)c4)c3n2)cn1
-0.87

###

System: HEK-293T
Experiment: Incucyte cell viability with HEK293T; note: unitless GR value; below 1 slowed growth and below 0 cell loss
Assay type: toxicity, cell-based
Conditions: human, 12 h, 10 µM, compound concentration 10 uM, replicate number 1, timepoint 12 hours
Where a SMILES comes first, the peptide text is derived from it. [ ]: non-standard residue; d: D form. Arg(Me) = CNC(=N)NCCC[C@H](N)C(=O)O; d3Pal = N[C@H](Cc1cccnc1)C(=O)O; azaGly = NNC(=O)O
Outcome: 1 (yes) for Growth Rate of at least 0.8; 0 (no) for anything lower.

# example entries with known answers
# COMPOUND, QUALITATIVE LABEL
measured = [
    ("COCCN1CCC(c2cc(CN(C)C(=O)c3cccc(Oc4ccccc4)c3)ccn2)CC1", "1 (yes)"),
    ("Cc1cc(NC(=O)NCCN2CCC(O)(Cc3ccccc3)CC2)c2ccccc2n1", "1 (yes)"),
]

Identify whether the reported Growth Rate of the following compound is 0.8 or greater: CC(C)C[C@H](CO)Nc1nc(S[C@@H](C)c2ccccc2)nc2nc(N)sc12
0 (no)

Is reported Growth Rate greater than or equal to 0.8 here: CNC(=N)NCCC[C@H](NC(=O)[C@H](CC(C)C)NC(=O)NNC(=O)[C@H](Cc1ccccc1)NC(=O)[C@H](CO)NC(=O)[C@H](CC(N)=O)NC(=O)[C@@H](Cc1cccnc1)NC(=O)[C@H](N)Cc1ccc(O)cc1)C(=O)NCC(N)=O [KISS1-543] (H-[dY][d3Pal]NSF[azaGly]L[Arg(Me)]G-NH2)
0 (no)

Is reported Growth Rate greater than or equal to 0.8 here: Cc1nc(C#Cc2cccnc2)cs1.Cl
0 (no)

Is reported Growth Rate greater than or equal to 0.8 here: CCc1cc2cc(NS(=O)(=O)c3ccc(C#N)cc3)ccc2n(CC)c1=O
0 (no)

Would you say CCC(=O)OCC(=O)[C@@]1(OC(=O)CC)[C@@H](C)C[C@H]2[C@@H]3CCC4=CC(=O)C=C[C@]4(C)[C@@]3(Cl)[C@@H](O)C[C@@]21C [BECLOMETHASONE DIPROPIONATE] shows Growth Rate at minimum 0.8?
0 (no)

Determine whether this compound has Growth Rate no lower than 0.8: CN1CCN(c2ccc(Nc3c4ccccc4nc4ccccc34)cc2)CC1.Cl.Cl.O
0 (no)

hey, is Growth Rate for this one >= 0.8? Fc1cccc(/C=N/N=C/c2cccc(F)c2)c1
0 (no)

Please tell me: is the compound CCCCCCCCc1ccc(CCC(N)(CO)CO)cc1 at or over 0.8 in terms of Growth Rate?
0 (no)

Has COc1cccc2c1c(NS(=O)(=O)c1ccc(Cl)s1)nn2Cc1cccc(CNC(=O)C(C)(C)O)c1 a recorded Growth Rate greater than or equal to 0.8?
1 (yes)

# bool: Growth Rate of CCCn1c(=O)c2[nH]c(C3CCCC3)nc2n(CCC)c1=O >= 0.8
1 (yes)

Please tell me: is the compound CC1(COc2ccc3c(c2)ncn3-c2ccc3cccc(N4CCC(N)CC4)c3n2)COC1 at or over 0.8 in terms of Growth Rate?
0 (no)

In plain terms: is recorded Growth Rate at least 0.8 for CC(COc1ccccc1)N(CCCl)Cc1ccccc1.Cl (configuration not stated) [PHENOXYBENZAMINE HYDROCHLORIDE] ?
0 (no)

Determine whether this compound has Growth Rate no lower than 0.8: C[C@@H](c1ccc(F)cc1)n1nnc2cnc3ccc(-c4ccc5ocnc5c4)cc3c21
0 (no)

###

Measured Growth Rate values are reported for all entries that follow.
Tested on: U2OS
Assay: Incucyte cell viability with U2OS; note: unitless GR value; below 1 slowed growth and below 0 cell loss
Type: toxicity, cell-based
Conditions: human, 18 h, 10 µM, compound concentration 10 uM, replicate number 1, timepoint 18 hours
Just the number, please, no unit attached.

Check out these entries, answers already filled in.
# MOLECULE, Growth Rate
rows = [
    ("CCCCCCCCc1ccc(CCC(N)(CO)CO)cc1", -0.23),
    ("NCCc1cn(S(=O)(=O)c2c(Cl)nc3sccn23)c2ccccc12.O=C(O)C(=O)O", 0.72),
    ("CCCCNNC(=O)c1ccc(Br)cc1", 0.94),
]

Moving on to the next molecule.
Supply reported Growth Rate belonging to this molecule: CCCN1CCC[C@@H]2Cc3n[nH]cc3C[C@H]21.Cl [QUINPIROLE HYDROCHLORIDE]
0.9

###

As shown below, each of these compounds has a reported Growth Rate value.
Test system: Fibroblast
Assay: Incucyte cell viability with human fibroblast; note: unitless GR value; below 1 slowed growth and below 0 cell loss
Type: toxicity, cell-based
Settings: 18 h, 10 µM, compound concentration 10 uM, replicate number 1, timepoint 18 hours

As a guide, the following entries are already answered.
# COMPOUND, Growth Rate
records = [
    ("CCCN1CCC[C@@H]2Cc3n[nH]cc3C[C@H]21.Cl [QUINPIROLE HYDROCHLORIDE]", 0.54),
    ("Cc1cc(CN)cc(C)c1-c1ncn(C)c1-c1ccnc2cc(F)ccc12", 0.18),
]

Report measured Growth Rate; entry is CCNC1(C(N)=O)CCN(c2ncnc3c2nc(-c2ccccc2Cl)n3-c2ccc(Cl)cc2)CC1
0.38

Supply reported Growth Rate belonging to this compound: COc1ccc(NC(=O)c2ccc(-c3ccc(-c4noc(C)n4)cc3C)cc2)cc1OCCN(C)C.Cl
-0.47

Please give the documented Growth Rate of COc1cc(OC2CCN(C(C)=O)CC2)ccc1C(=O)N1CCC(N2C(=O)OCc3ccccc32)CC1
0.37

Data origin: ChEMBL document CHEMBL5058564
